Target desc: Cytochrome P450 1A2 (Homo sapiens) (UniProt P05177)
Sequence (P05177 whole entry, looked up): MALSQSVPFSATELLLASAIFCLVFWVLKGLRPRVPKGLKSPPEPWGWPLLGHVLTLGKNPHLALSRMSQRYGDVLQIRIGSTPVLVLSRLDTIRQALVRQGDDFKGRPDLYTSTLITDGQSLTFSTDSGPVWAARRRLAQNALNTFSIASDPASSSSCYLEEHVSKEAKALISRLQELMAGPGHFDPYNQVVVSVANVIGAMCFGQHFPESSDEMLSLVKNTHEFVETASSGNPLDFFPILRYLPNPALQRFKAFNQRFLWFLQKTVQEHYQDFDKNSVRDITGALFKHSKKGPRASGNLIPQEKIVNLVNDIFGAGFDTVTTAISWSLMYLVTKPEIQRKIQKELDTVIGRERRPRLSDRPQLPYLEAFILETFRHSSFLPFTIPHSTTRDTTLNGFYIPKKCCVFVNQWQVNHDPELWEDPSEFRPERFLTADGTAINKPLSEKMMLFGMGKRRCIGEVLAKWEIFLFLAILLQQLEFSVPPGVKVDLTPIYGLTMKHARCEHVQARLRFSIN
Measurement notes: p450-cyp1a2 (AID 410);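 also: -100% = full effect of reference inhibitor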
Test conditions: recombinant CYP1A2, luciferin-ME demethylation, luminescence; series mostly up to 11.4 µM
Inconclusive results are not listed. Activity calls are given as the source filed them. Calls follow the shape of the full dose curve.
Measurement type: activity change, negative = inhibition

As a guide, the following entries are already answered.
| Chem smiles | activity change, negative = inhibition |
| --- | --- |
| Cc1ccc2ccccc2c1CSc1nc(N)nc2c1ncn2CC(C)C | -20.8% [at 2.29 µM] (inactive) |
| C=C(C)CNCCN | 2.2% [at 2.29 µM] (inactive) |
| CN(C)CCCCN1CCc2c(n(C)c3ccccc23)C1=O | -14.1% [at 2.29 µM] (inactive) |
| Clc1ccc2c(NCCNC3CCCCC3)ccnc2c1 | -10.2% [at 2.29 µM] (inactive) |

Parameters: items (list). Returns: activity change, negative = inhibition for each item.
1. NS(=O)(=O)c1ccc(N=C2C(=O)Nc3ccccc32)cc1
2. C[C@]12CC[C@H]3c4ccc(O)cc4CC[C@@H]3[C@H]1CC[C@@H]2OC(=O)CCc1ccccc1
3. Cc1cn([C@H]2C[C@H](O)[C@@H](COC(N)=O)O2)c(=O)[nH]c1=O
4. N=C(N)SCc1cccc(-c2nc3ccccc3c(=O)o2)c1
5. Cc1ccc(S(=O)(=O)O[C@H]2C[C@@H](C(C)(C)C)CC[C@@H]2c2ccccc2)cc1
6. OC[C@@H]1O[C@@H](n2cnc3c(SCc4ccccc4)ncnc32)[C@@H](O)[C@H]1O
7. O=C(O)C/C(=C\c1ccco1)C(=O)O

A.
1: -12.7% [at 2.29 µM] (inactive); 2: -13.8% [at 2.29 µM] (inactive); 3: -14.6% [at 2.29 µM] (inactive); 4: -10.3% [at 2.29 µM] (inactive); 5: -22.8% [at 2.29 µM] (inactive); 6: -17.2% [at 2.29 µM] (inactive); 7: -11.8% [at 2.29 µM] (inactive)

###

Measurement notes: Cell Viability - LYMP2-015 (AID 971);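 also: cells exposed to compound for 24 h; nearly all actives have a fitted effect of over 55% in size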
Test conditions: LYMP2-015 lymphoblastoid cell viability; series mostly up to 92.2 µM
Inconclusive results are not listed. The source made the active and inactive calls. The call rests on the fitted dose curve; in most records, active means well fitted cell-killing curve with a large enough effect; inconclusive means small, poorly fitted or top-dose-only effect; inactive means flat fitted curve, though single readings scatter.
Pick one: active, inactive

| Chem smiles | Classification |
| --- | --- |
| O=[N+]([O-])c1cc(N(CCO)CCO)ccc1NCCO | inactive |

Q. Dear all, I need the recorded test outcome for `CC(=O)c1ccc(Cl)c(Cl)c1Cl` , thank you.
A. inactive

Q. Assay outcome for `COc1ccc(C(=O)Nc2ccccc2)cc1[N+](=O)[O-]` : what was it?
A. inactive

Q. Please share the test call associated with `CCc1ccc(C(c2ccc(CC)cc2)C(Cl)Cl)cc1` .
A. inactive

Q. # outcome recorded in this test, key = `CC1=C(/C=C/C(C)=C/C=C/C(C)=C/C=O)C(C)(C)CCC1`
A. active

Q. Hi, sorry to bother you, what did the test record for `Cc1c(N)cccc1Cl` ?
A. inactive

Q. Short answer needed: outcome of this test for `C1CCCNCC1` ?
A. inactive

###

Measurement notes: qHTS assay to identify small molecules that stimulate interleukin-8 (IL-8) secretion (AID 651758); as to activation: 0% is about no effect
Test conditions: HTRF ratio (665/615); series mostly up to 92.2 µM
Experimental: National Center for Advancing Translational Sciences [NCATS] NIH Chemical Genomics Center [NCGC] National Institutes of Environmental Health Sciences [NIEHS] National Toxicology Program [NTP] […] THP-1 cells were dispensed at 2000 cells/5ul/well in 1536-well white solid plates. […] After the assay plates were incubated at room temperature for 1-3 hrs, the plates were measured by an EnVision plate reader.
Results filed as inconclusive are left out. Activity calls are given as the source filed them. Calls follow the shape of the dose curve; as a rule, active = well fitted activation curve with a large enough effect in the signal ratio; inconclusive = small, poorly fitted or top-dose-only effect, or effect the other way, or a change in a side signal; inactive = flat fitted curve, though single readings scatter; the % refers to the signal ratio.
Output constraint: value belongs to active, inactive

For orientation, consider the following solved cases.
| Molecule | Classification |
| --- | --- |
| Cc1ccccc1OCC1CO1 (stereo not drawn) | inactive |
| O=C(Cl)c1ccc([N+](=O)[O-])cc1 | inactive |
| CC(CCC(=O)O)(c1ccc(O)cc1)c1ccc(O)cc1 | inactive |
| OCC(CO)(CBr)CBr | inactive |
| Nc1cnn([C@@H]2O[C@H](CO)[C@@H](O)[C@H]2O)c(=O)n1 | active |
| OC1CCCCC1 | inactive |
| c1c[nH]cn1 | inactive |

Now, please, on to the next molecule.
Q. I would be grateful if you could indicate the recorded call for `CCCCOC(=O)COc1ccc(Cl)cc1Cl` .
A. inactive
